# targetDesc: Cytochrome P450 2C9 (Homo sapiens)
# assay: Cytochrome panel assay with activity outcomes
# experimentalSetup: recombinant CYP, pro-luciferin dealkylation, luminescence, p450-cyp2c9; series mostly up to 57.1 µM
Out of some 16,000 compounds screened, about 4,000 (25%) were called active. Roughly 26% stayed inconclusive and do not appear here. Calls come from the whole dose curve; as a rule, active = well fitted curve in the direction sought with a large enough effect; inconclusive = small, poorly fitted or top-dose-only effect, or effect the other way; inactive = no such curve, though single readings can be large or run the other way. A selection follows.
Respond using exactly one of the listed classes: active, inactive

Completed entries (count: 5):
compound: CC[C@@]1(O)C(=O)COc2c1cc1n(c2=O)Cc2c-1nc1cccc(C(C)C)c1c2[Si](C)(C)C
classLabel: inactive
--
compound: CCNc1ncc2nc(C)c(=O)n(Cc3cccs3)c2n1
classLabel: inactive
--
compound: CC(C)c1cccc2nc3c(c(C(C)(C)C)c12)Cn1c-3cccc1=O
classLabel: active
--
compound: O=S(=O)(c1ccccc1S(=O)(=O)N1CCCCC1)N1CCCCC1
classLabel: active
--
compound: CS(=O)(=O)N1CCCC(C(=O)N2CCc3ccccc3C2)C1 (stereo unspecified)
classLabel: inactive

We now examine a further compound.
// outcome(item) with item = CCc1c2c(nc3c(C(C)C)cccc13)-c1cccc(=O)n1C2
active
